- Test system: HOP-92 NSCLC
- method.summary: NCI tumour cell line growth inhibition, 48 h; in the data active = GI50 below about 0.43 µM; inactive = the rest
Outcomes: active, inactive

molecule: COc1cc2c3c(n(CCCNCCNCCN)c(=O)c2cc1OC)-c1cc2c(cc1C3=O)OCO2
qualitative.label: inactive

molecule: CCCCCCCCCCS(=O)CC(CO)NC(=O)/C=C/c1c(C)[nH]c(=O)[nH]c1=O (stereo unspecified)
qualitative.label: inactive

molecule: O=C1C=CC(=O)c2cc3cc(CO)ccc3cc21
qualitative.label: inactive

molecule: COc1cc2ccnc(C=O)c2cc1OC
qualitative.label: inactive

molecule: CC1=C2O[C@]3(O)C=C2C(=C(O)C1=O)[C@@H]1O[C@H](CC[C@H](C)/C=C(\C)C[C@@H](C)C[C@@H]3C)[C@H](C)[C@H](O)[C@H]1C
qualitative.label: active

molecule: CCO/C=N/C1=C(C#N)C(c2ccc(OC)cc2)c2sc3c(F)cccc3c2O1 (stereo unspecified)
qualitative.label: inactive

###

- Tested on: PC-3 prostate
- method.summary: NCI tumour cell line growth inhibition, 48 h
parameter: GI50

compound: O=C1Nc2ccccc2/C1=C\c1c(Cl)nc2sccn12
measured: 2.44 µM
//
compound: CCO/C=N/C1=C(C#N)C(c2ccc(OC)cc2)c2sc3c(F)cccc3c2O1 (configuration not stated)
measured: 2.86 µM
//
compound: COc1ccc(CC(C)=C(c2ccc(OCCN3CCCCCC3)cc2)c2ccc(OCCN3CCCCCC3)cc2)cc1
measured: 0.265 µM
//
compound: COc1cc(/C=C/c2cc(/C=C/c3ccc(O)c(OC)c3)n(-c3c(Cl)cccc3Cl)c(=O)n2)ccc1O
measured: 4.68 µM
//
compound: COc1cc(-c2ccc(-c3ccc(C(=N)N)cc3)s2)cc(OC)c1OC
measured: 2.94 µM
//
compound: COc1ccc(-c2cc(-c3ccccc3)nc(SCCCC(=O)NO)n2)cc1OC
measured: 1.39 µM
//
compound: [N-]=[N+]=NCCCn1c2c(c3cc4c(cc3c1=O)OCO4)C(=O)c1ccccc1-2
measured: > 100 µM

###

// reported TGI for each item listed
- Tested on: UACC-257 melanoma
- method.summary: NCI tumour cell line growth inhibition, 48 h

compound: Cc1[nH]c(=O)[nH]c(=S)c1C(=O)NC1C2CCCCC2NC2CCCCC21 (stereo not given)
TGI: 33.5 µM
--
compound: COc1ccc(O)c(/C=N/NC(=S)N2CCCCC2)c1
TGI: > 100 µM
--
compound: CCOC(=O)C12CCCC1(O)N(NC(N)=O)C(C)=C2C(=O)OC (stereo not given)
TGI: > 100 µM
--
compound: CCCCCC(=O)N[C@H]1CCc2cc(O)c(O)c(O)c2-c2ccc(SC)c(=O)cc21
TGI: > 75.3 µM
--
compound: CCCCCCCCCCCCCCCC/C(C(=O)OC)=C(/O)C(=O)OCC
TGI: > 100 µM
--
compound: O=C1OC(O)c2cc3c(cc21)OCO3 (stereo not given)
TGI: > 100 µM
--
compound: CC(=O)/C=C/c1ccc(OCc2ccc(C(C)(C)C)cc2)cc1
TGI: > 1000 µM
--
compound: O=S1(=O)OCCOS(=O)(=O)C1(Br)Cc1ccccc1
TGI: > 100 µM
--
compound: O=C1C=CC(=O)c2cc3cc(CO)ccc3cc21
TGI: 27.2 µM
--
compound: CCC(=O)/C=C/c1ccccc1
TGI: > 100 µM
--
compound: CC(C)=CCC/C(C)=C/CO
TGI: > 100 µM
--
compound: CNCC(=O)Nc1ccc2c(c1)C(=O)c1ccc(NC(=O)CNC)cc1C2=O
TGI: 16.1 µM
--
compound: O=C(c1nc2ccc(Cl)cc2[nH]c1=O)C(O)c1ccccc1 (stereo not given)
TGI: > 100 µM
--
compound: C/C=C(\C)[C@@H](O)C(=O)O[C@@H]1CC(C(C)(C)O)[C@](C)(CCC(=O)OC)[C@H]2[C@H](OC(=O)[C@H](O)[C@H](C)CC)C[C@]3(C)C(=CC[C@H]3[C@H]3CO[C@H](C=C(C)C)C3)[C@]12C (stereo not given in full)
TGI: 49.9 µM
--
compound: O=C(COc1nc2ccccc2nc1-c1ccccc1)Nc1ccc(Cl)cc1
TGI: > 100 µM
--
compound: CNC(=O)NCC1OC(n2cnc3c(NC(=O)Nc4ccccc4)ncnc32)C(O[Si](C)(C)C(C)(C)C)C1CC(=O)N(C)OC (stereo not given)
TGI: > 100 µM
--
compound: c1ccc2cc(C[n+]3ccn(CCCCCCCCCCCCn4cc[n+](Cc5ccc6ccccc6c5)c4)c3)ccc2c1
TGI: 1.53 µM
--
compound: COc1cccc2c1N[S@](=O)S2
TGI: > 100 µM
--
compound: c1coc(C2=Nc3cccc4cccc(c34)N2)c1
TGI: > 100 µM
--
compound: COc1cc(OC)c2c(c1-c1ccc(C)cc1)CC(C)N(Cc1ccccc1)[C@H]2C (stereo not given in full)
TGI: 68.5 µM

###

- Tested on: RPMI-8226 leukemia
- method.summary: NCI tumour cell line growth inhibition, 48 h
GI50 reference

molecule: c1ccc([P+](c2ccccc2)(c2ccccc2)c2ccc3c4ccc([P+](c5ccccc5)(c5ccccc5)c5ccccc5)c5cccc(c6cccc2c63)c54)cc1
GI50: 0.647 µM
--
molecule: Nc1nc(N)c(N=Nc2ccccc2)c(-c2ccccc2)n1
GI50: 7.98 µM
--
molecule: COc1cc2c(cc1I)-c1c(cc(OC)c(OC)c1OC)CC[C@@H]2NC(C)=O
GI50: 0.505 µM
--
molecule: CCn1c(=O)c(Oc2ccc(F)cc2F)cc2cnc(NC3CCOCC3)nc21
GI50: > 25 µM
--
molecule: CNC(=O)NCC1OC(n2cnc3c(NC(=O)Nc4ccccc4)ncnc32)C(O[Si](C)(C)C(C)(C)C)C1CC(=O)N(C)OC (stereo not drawn)
GI50: 1.58 µM
--
molecule: CCC(CC)c1nc(Nc2cccc(OC)c2)c2ccccc2n1
GI50: 5.41 µM
--
molecule: CN(C)c1cc[n+](/C(NS(=O)(=O)c2cc(C(=O)Nc3ccc(Cl)cc3)c(Cl)cc2[S-])=C(\C#N)C(=O)c2ccccc2)cc1
GI50: 40.9 µM
--
molecule: O=C(/C=C/c1ccc(Cl)cc1)c1ccc(Nc2nc(Nc3ccc(F)cc3)nc(Nc3ccc(F)cc3)n2)cc1
GI50: 4.99 µM

###

- System: COLO 205 colon
- method.summary: NCI tumour cell line growth inhibition, 48 h; in the data active = GI50 below about 0.43 µM; inactive = the rest
Classes used: active, inactive

compound: CC(C)=[CH][Sb]([Br])([CH]=C(C)C)([CH]=C(C)C)[c]1ccccc1
system: COLO 205 colon
qualitative.label: inactive

compound: CC1(C)C(N(O)C(=O)Nc2ccc(Cl)cc2)N(c2ccc(Cl)cc2)C(=O)N1CC(=O)N/N=C/C=C/c1ccc([N+](=O)[O-])o1 (stereo unspecified)
system: COLO 205 colon
qualitative.label: inactive

compound: O=C(c1ccc(Cl)cc1)c1no[n+]([O-])c1C(=O)c1ccc(Cl)cc1
system: COLO 205 colon
qualitative.label: inactive

compound: C=C1C(=O)O[C@H]2[C@H]1CC/C(COC(=O)/C=C/C(=O)NCc1ccc(Cn3c(=O)sn(-c4ccccc4)c3=O)cc1)=C\CC[C@@]1(C)O[C@@H]21
system: COLO 205 colon
qualitative.label: inactive

compound: CCC(CC)c1nc(Nc2cccc(OC)c2)c2ccccc2n1
system: COLO 205 colon
qualitative.label: inactive

compound: O=C(COc1nc2ccccc2nc1-c1ccccc1)Nc1ccc(Cl)cc1
system: COLO 205 colon
qualitative.label: inactive

compound: CC1(C)CN(c2cc(C(F)(F)F)cc3cncn23)CCC12NC(=O)NC2=O (stereo unspecified)
system: COLO 205 colon
qualitative.label: inactive

compound: CCCCCCCCCCS(=O)CC(CO)NC(=O)/C=C/c1c(C)[nH]c(=O)[nH]c1=O (stereo unspecified)
system: COLO 205 colon
qualitative.label: inactive

compound: CCC[CH2][Sn]1([CH2]CCC)[O]C(=O)c2cccc(C)c2[O]1
system: COLO 205 colon
qualitative.label: active

compound: Clc1ccc2c(c1)C(Br)c1cc(Cl)cc(Cl)c1-2 (stereo unspecified)
system: COLO 205 colon
qualitative.label: inactive

compound: C[n+]1c(-c2ccccc2)c2cc(N)ccc2c2ccccc21
system: COLO 205 colon
qualitative.label: inactive

compound: Cn1ccc(=O)c2c(O)c3ccccc3c(O)c21
system: COLO 205 colon
qualitative.label: inactive

compound: CCO/C=N/C1=C(C#N)C(c2ccc(OC)cc2)c2sc3c(F)cccc3c2O1 (stereo unspecified)
system: COLO 205 colon
qualitative.label: inactive

compound: NCCCOc1cc2ccccc2cc1C(=O)NCCOc1nc2ccccc2cc1C(=O)Nc1ccc(Cl)cc1O
system: COLO 205 colon
qualitative.label: inactive

compound: CNC(=O)NCC1OC(n2cnc3c(NC(=O)Nc4ccccc4)ncnc32)C(O[Si](C)(C)C(C)(C)C)C1CC(=O)N(C)OC (stereo unspecified)
system: COLO 205 colon
qualitative.label: inactive

compound: C#CCn1cnc2cnc(Nc3cccc(NC(=O)CCl)c3)nc21
system: COLO 205 colon
qualitative.label: inactive
